Molecular target: TAFIa (purified human TAFI activated by thrombin-thrombomodulin complex) (Homo sapiens, UniProt Q96IY4)
Sequence (Q96IY4 115-423): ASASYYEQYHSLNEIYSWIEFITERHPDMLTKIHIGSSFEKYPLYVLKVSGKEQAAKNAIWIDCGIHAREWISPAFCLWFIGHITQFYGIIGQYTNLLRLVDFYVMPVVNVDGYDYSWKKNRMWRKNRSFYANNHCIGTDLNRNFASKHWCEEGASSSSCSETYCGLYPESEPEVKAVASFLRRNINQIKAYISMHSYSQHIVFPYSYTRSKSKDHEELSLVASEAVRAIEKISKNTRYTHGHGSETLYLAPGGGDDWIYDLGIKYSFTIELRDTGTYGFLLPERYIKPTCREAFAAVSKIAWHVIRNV
Assay: Inhibition of TAFIa (chromogenic substrate, TAFI Activity Kit)
Conditions: 3.2 nM TAFIa; compound incubated 5 minutes at 20° C., chromogenic substrate 30 minutes at 37° C., OD at 490 nm; read-out: IC50 (concentration which inhibits 50% of the enzymatic activity of TAFIa)
Where a name gives a salt, the structure may show the parent alone.
measurement.label: IC50 (nM)

NCCC[C@@]1(C(=O)O)CCC[C@@H]1S [Example 1, trifluoroacetate]; 6.7
NCCCCC1(C(=O)O)CCCC1S (single isomer, unassigned); 178
O=C(O)[C@@]1(CC2CCNCC2)CCC[C@H]1S (single isomer, unassigned); 184
CC(=O)S[C@H]1CCC[C@@]1(CCCN)C(=O)O [Example 2, hydrochloride]; 22
NCCC[C@@]1(C(=O)O)CCC[C@@H]1SS[C@H]1CCC[C@@]1(CCCN)C(=O)O; 186

a: NCCC[C@@]1(C(=O)O)CCC[C@@H]1S [Example 3, hydrochloride]
b: NCCCC[C@]1(C(=O)O)CCC[C@H]1S (single isomer, unassigned; enantiomer 2)
Choose between a and b : whose measured IC50 value is numerically larger? Write down the label attached to your selection. b
